protocolText: reduction of polyQ htt aggregates in cells – imaging, exon1htt(103Q)mCFP cells, high-content imaging, primary screen (AID 483);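 note: compound exposure lasted 3 days before fixation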
testSettings: exon1htt(103Q)mCFP cell line, aggregate imaging, at 2 µM; stronger effect = higher value

[
  {
    "compound": "COc1ccc(C(NC(C)=O)c2ccc3cccnc3c2O)c(OC)c1 (stereo unspecified)",
    "inhibition of aggregation / %": -3
  },
  {
    "compound": "Cc1cccc(N2CCN(C(=O)Cn3ccc4ccccc4c3=O)CC2)c1C",
    "inhibition of aggregation / %": 3.8
  },
  {
    "compound": "c1ccc(OCCCn2nnc(-c3ccncc3)n2)cc1",
    "inhibition of aggregation / %": 2.3
  },
  {
    "compound": "CCn1cc(C2=NOC(C(=O)Nc3c(C)nn(Cc4ccc(F)cc4)c3C)C2)c(C)n1 (stereo unspecified)",
    "inhibition of aggregation / %": -18.1
  },
  {
    "compound": "CCN(CC)S(=O)(=O)c1ccc(NC(=O)c2cccc3c2C(=O)N(CCOC)C3)cc1",
    "inhibition of aggregation / %": 5.3
  },
  {
    "compound": "C=CCN(CC=C)C(=O)Nc1cc(Cl)ccc1OC",
    "inhibition of aggregation / %": -7.2
  },
  {
    "compound": "C=CCC1(O)C(=O)Nc2ccccc21 (stereo unspecified)",
    "inhibition of aggregation / %": -5.5
  },
  {
    "compound": "Cc1onc(-c2ccccc2)c1C(=O)N1CCOCC1",
    "inhibition of aggregation / %": -7.5
  },
  {
    "compound": "Cc1c(NC(=O)C(C)Oc2ncnc3ccccc23)c(=O)n(-c2ccccc2)n1C (stereo unspecified)",
    "inhibition of aggregation / %": -8.5
  },
  {
    "compound": "CC1(C)CC(=O)CC(C)(C)N1OC(=O)c1ccccn1",
    "inhibition of aggregation / %": -6.4
  },
  {
    "compound": "CN1CCN(c2ncnc3c2cnn3-c2ccc(Cl)cc2)CC1",
    "inhibition of aggregation / %": -0.6
  }
]
